- measured.on: Carbonic anhydrase 2 (Homo sapiens) (UniProt P00918)
- measurement.notes: compounds binding carbonic anhydrase 2 – biochemical, small-molecule microarray, Alexa647-labelled CAII, profiling panel (AID 1122)
- experimental.conditions: CAII-A647 binding fluorescence, higher = more signal
Exercise: state measured composite z-score for each of the compounds provided.
Please reply with the value in numeric form only.

Lookup result for c1ccc(-c2cc3c(nc2-c2ccccc2)CCNC3)cc1 ; measured composite z-score: -0.301

Lookup result for CCCC=C(CCC)[C@@H](NP(=O)(c1ccccc1)c1ccccc1)c1ccccc1 ; measured composite z-score: -0.0222

Lookup result for CCc1cc2c(nc1CC)CCN(CCC(C)=NOC)C2 ; measured composite z-score: 0.639

Lookup result for COc1cc2c(cc1O)C=[N+](C)CC2 ; measured composite z-score: 0.329

Lookup result for C[C@@H]1OC=C2[C@@H](O)[C@H]3O[C@H]3C(=O)[C@]23[C@H]1[C@H]1C2=C([C@@H](O)[C@H]4O[C@H]4C2=O)[C@@H]3O[C@@H]1C ; measured composite z-score: -0.355
